Protocol: MM1S cell viability effects, profiling panel, calcein-AM fluorescence, 48 h, basal (AID 1165);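 note: viability of MM1S multiple myeloma cells under basal unstimulated conditions; test concentration not given here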
Condition Parameters: higher = more signal
Each entry below carries its reported z-score.

Recorded results for 3 compounds are shown here.
COc1cc2c(cc1OC)CN(C(=O)[C@@H]1[C@H]3C(=O)O[C@H](c4ccccc4)[C@H](c4ccccc4)N3[C@H](c3ccccc3OCCO)[C@@]13C(=O)Nc1ccccc13)CC2 : -0.998
CC(C)=C1C(=O)C(c2ccccc2)=C2CN3C(=O)N(CCc4ccccc4)C(=O)[C@]3(Cc3ccccc3)[C@H]21 : 0.492
[N-]=[N+]=NCc1ccccc1[C@H]1OC(c2ccc(OCCCO)cc2)=N[C@@]1(Cc1ccccc1N=[N+]=[N-])C(=O)NCc1ccccc1 : -2.4

# evaluate next
Task item: Bench note: what z-score did CC[C@H]1C2=C3C(CC[C@H]4C(OC)OC[C@](C)([C@@H]34)N(C(=O)OC(C)(C)C)C2)C(CO)C1CO (some centres undefined) show?
Reply: 1
